# tested-target: T1, CD19 (UniProt P15391 20-556, limits assumed)
# T1 construct: whole, on cells; also called CD19 on JeKo-1
# T1 sequence (looked up): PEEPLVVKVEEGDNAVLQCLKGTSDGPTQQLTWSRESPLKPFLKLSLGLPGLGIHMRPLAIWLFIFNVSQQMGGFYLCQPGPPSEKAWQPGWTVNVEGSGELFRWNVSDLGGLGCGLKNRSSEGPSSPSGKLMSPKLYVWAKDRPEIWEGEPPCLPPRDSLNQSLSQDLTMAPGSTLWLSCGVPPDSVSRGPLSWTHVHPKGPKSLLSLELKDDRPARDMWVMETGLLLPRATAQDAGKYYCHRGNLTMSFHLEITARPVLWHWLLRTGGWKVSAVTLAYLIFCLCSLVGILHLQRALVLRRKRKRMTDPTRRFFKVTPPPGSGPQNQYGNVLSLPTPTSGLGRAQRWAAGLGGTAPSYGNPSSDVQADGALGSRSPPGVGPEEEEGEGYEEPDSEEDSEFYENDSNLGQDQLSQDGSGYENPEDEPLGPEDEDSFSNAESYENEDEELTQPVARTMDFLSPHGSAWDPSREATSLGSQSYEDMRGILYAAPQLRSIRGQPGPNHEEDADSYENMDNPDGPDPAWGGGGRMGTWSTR
# protocol-summary: flow cytometry, JeKo-1 cells, anti-His-FITC detection, MFI over no-bridge control
Param label: returns Y when MFIR HisTag FITC < 4, returns N otherwise, including exact equality.

Recorded results for 3 binders are shown here.
CD19 BRIDGE variant B19 (Fab, V domains shown) VH: EVQLVESGGGLVKPGGSLKLSCAASGYTFTSYVMHWVRQAPGKGLEWIGYINPYNDGTKYNEKFQGRVTISSDKSISTAYMELSSLRSEDTAMYYCARGTYYYGTRVFDYWGQGTLVTVSS VL: DIVMTQSPATLSLSPGERATLSCRSSKSLQNVNGNTYLYWFQQKPGQSPQLLIYRMSNLNSGVPDRFSGSGSGTEFTLTISSLEPEDFAVYYCMQHLEYPITFGAGTKLEIKR	Y
CD19 BRIDGE variant B25 (Fab, V domains shown) VH: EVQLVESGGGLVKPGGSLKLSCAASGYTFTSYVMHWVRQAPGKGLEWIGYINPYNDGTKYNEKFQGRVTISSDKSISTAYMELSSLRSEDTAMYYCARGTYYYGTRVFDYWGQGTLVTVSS VL: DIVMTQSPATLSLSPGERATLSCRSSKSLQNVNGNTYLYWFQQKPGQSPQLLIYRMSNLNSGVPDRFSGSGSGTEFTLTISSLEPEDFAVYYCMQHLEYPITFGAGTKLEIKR	Y
CD19 BRIDGE variant B1 (Fab, V domains shown) VH: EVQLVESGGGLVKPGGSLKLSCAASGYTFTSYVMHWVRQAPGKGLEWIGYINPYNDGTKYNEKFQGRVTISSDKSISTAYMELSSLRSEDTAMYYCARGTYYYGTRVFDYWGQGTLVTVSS VL: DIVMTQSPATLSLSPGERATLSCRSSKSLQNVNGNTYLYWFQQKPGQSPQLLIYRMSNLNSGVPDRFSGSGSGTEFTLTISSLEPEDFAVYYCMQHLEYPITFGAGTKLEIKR	N

[Q] In the record for CD19 BRIDGE variant B20 (Fab, V domains shown) VH: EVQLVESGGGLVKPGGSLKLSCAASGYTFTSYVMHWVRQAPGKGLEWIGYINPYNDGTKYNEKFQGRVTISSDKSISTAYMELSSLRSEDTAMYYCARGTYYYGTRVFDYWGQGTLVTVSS VL: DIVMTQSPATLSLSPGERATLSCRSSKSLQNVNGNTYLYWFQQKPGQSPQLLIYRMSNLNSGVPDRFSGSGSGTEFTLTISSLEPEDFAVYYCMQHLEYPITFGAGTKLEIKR , is MFIR HisTag FITC less than 4?
[A] Y
